# assay: Absorption and fluorescence properties in water
# Assay type: physicochemical
# assay.conditions: excitation wavelength 380 nm
measured.endpoint: λem (nm)
Reply numerically in nm, unit not repeated.

get_value(item= CC1(C)C(/C=C/c2ccc(F)c(C#N)c2)=Nc2ccc3ccccc3c21 [Compound 3j] , readout=λem) returns 523

get_value(item= COc1ccc(/C=C/C2=Nc3ccc4ccccc4c3C2(C)C)cc1[N+](=O)[O-] [Compound 3f] , readout=λem) returns 549

get_value(item= CC1(C)C(/C=C/c2ccc(C(F)(F)F)cc2)=Nc2ccc3ccccc3c21 [Compound 3e] , readout=λem) returns 531

get_value(item= CC1(C)C(/C=C/c2ccccc2[N+](=O)[O-])=Nc2ccc3ccccc3c21 [Compound 3p] , readout=λem) returns 566
